Test system: RPMI-8226 leukemia
Test: NCI-60 one-dose screen, 48 h
Settings: 10 µM unless noted
Compounds without any hit were thinned out: in the full panel of roughly 83,000, 20% have a hit. Activity calls are given as the source filed them. How the source made its calls: active means growth percent below 10; inactive means the rest.
Response enum: active, inactive

Which outcome was entered for the compound CC(=O)O.CC(=O)O.O.[Fe] in this test?
inactive

Which outcome was entered for the compound COc1ncc(-c2ccc3nccc(C#CCCCCC(=O)O)c3c2)cc1NS(=O)(=O)c1ccc(F)cc1F in this test?
inactive

Which outcome was entered for the compound C=CC1=C(C)C2=NC1=CC1=NC(=CC3=C(C)C4=C(O)C(C(=O)O)C(=C5NC(=C2)C(C)C5CCC(=O)O)C4=N3)C(CC)=C1C (configuration not stated) in this test?
inactive

Which outcome was entered for the compound O=C(Nc1cccc2cccnc12)c1cc(C(=O)c2ccc(Cl)cc2)n2ccc(-c3ccncc3)cc12 in this test?
inactive

Which outcome was entered for the compound CC1=CC[C@@H]2C(C)(C)[C@@H](O)CC[C@@]2(C)[C@@H]1COc1ccc2ccc(=O)oc2c1 in this test?
inactive

Which outcome was entered for the compound CC1(C)CC[C@]2(C(N)=O)CC[C@]3(C)C(=CC[C@@H]4[C@@]5(C)C/C(=C/c6cccnc6)C(=O)C(C)(C)[C@@H]5CC[C@]43C)[C@@H]2C1 in this test?
active

Which outcome was entered for the compound CCN(CC)c1cc(N)c(Cc2c(N)cc(N(CC)CC)cc2Cl)c(Cl)c1 in this test?
active

Which outcome was entered for the compound COc1cc(-c2nc(SCCC(C)C)nc(Nc3ccc(S(N)(=O)=O)cc3)c2C#N)cc(OC)c1OC in this test?
active

Which outcome was entered for the compound COc1cc(/C=C/C(=O)/C=C/c2ccc(-n3ccnc3C)cc2)ccc1O in this test?
active

Which outcome was entered for the compound COc1ccc2nc3cc(Cl)ccc3c(Nc3ccc(O)cc3)c2c1 in this test?
inactive

Which outcome was entered for the compound C[C@]12CCc3c(ccc4cc(O)ccc34)[C@@H]1CC[C@H]2O in this test?
inactive

Which outcome was entered for the compound C#CCNC(=O)CC[C@]1(C)[C@H]2CC[C@@H]3[C@@H]([C@@](C)(O)CCC=C(C)C)CC[C@@]3(C)[C@]2(C)CC[C@H]1C(=C)C in this test?
active

Which outcome was entered for the compound CCn1cc(-c2ccnc(NCCNS(=O)(=O)c3cccc4ccccc34)c2)c(-c2cccc(O)c2)n1 in this test?
inactive

Which outcome was entered for the compound COc1ncc(-c2ccc3nccc(C#CCCCCC(=O)NO)c3c2)cc1NS(=O)(=O)c1ccc(F)cc1F in this test?
active

Which outcome was entered for the compound COc1ccc(-c2c(C)nn3c(NCCN4CCOCC4)cc(C)nc23)cc1OC in this test?
inactive

Which outcome was entered for the compound CN(C)Cc1ccc[nH]1 in this test?
inactive

Which outcome was entered for the compound O=C(O)c1cc([N+](=O)[O-])ccc1Br in this test?
inactive

Which outcome was entered for the compound CC/C=C(\C)C(CCC)(CN=O)C(=O)OCC (configuration not stated) in this test?
inactive

Which outcome was entered for the compound COc1cc2c(cc1OCCCCCOc1ccc(-n3c(C)nc4ccccc4c3=O)cc1)N=C[C@@H]1CCCN1C2=O in this test?
active

Which outcome was entered for the compound O=C(CSc1nc2ccc([N+](=O)[O-])cc2[nH]1)Nc1ccc(F)c(Cl)c1 in this test?
active

Which outcome was entered for the compound CNC(=O)c1cc(Oc2cccc3nc(NC(=O)Nc4cc(C(F)(F)F)cc(C(F)(F)F)c4)ccc23)ccn1 in this test?
inactive

Which outcome was entered for the compound C=C(C)[C@@H]1CC[C@]2(C(=O)N3CCN(C)CC3)CC[C@]3(C)[C@H](CC[C@@H]4[C@@]5(C)C/C(=C/c6ccncc6)[C@H](O)C(C)(C)[C@@H]5CC[C@]43C)[C@@H]12 in this test?
active

Which outcome was entered for the compound Cc1cc(-c2ccc(N=Nc3c(S(=O)(=O)O)cc4cc(S(=O)(=O)O)cc(N)c4c3O)c(C)c2)ccc1N=Nc1cc(S(=O)(=O)O)c2ccccc2c1O in this test?
inactive

Which outcome was entered for the compound CC(C)C1=NOC(=O)C1=Cc1cn(-c2ccccc2)nc1-c1ccccc1 in this test?
active

Which outcome was entered for the compound CC[C@]12C=CCN3CC[C@@]4(c5ccc(OC)cc5N(C)[C@H]4[C@@](O)(C(=O)OC)[C@@H]1OC(=O)CCC(=O)O[C@H]1CC[C@H]4[C@@H]5CCC6=CC(=O)CC[C@@H]6[C@H]5CC[C@]14C)[C@@H]32 in this test?
active

Which outcome was entered for the compound CCc1cccc(Cl)c1 in this test?
inactive

Which outcome was entered for the compound CCOC(=O)c1ccc2nc(-c3c(C)nn(-c4ccccc4)c3N3CCOCC3)[nH]c2c1 in this test?
inactive

Which outcome was entered for the compound O=c1[nH]cnc2c1ccn2C1OC(CO)C(O)C1O (configuration not stated) in this test?
inactive

Which outcome was entered for the compound O=C(CCN1CCCCC1)c1ccc(Cl)cc1 in this test?
inactive

Which outcome was entered for the compound Cc1ccc(Cn2c(O)c(N=NC(=O)c3ccc(S(N)(=O)=O)cc3)c3ccccc32)cc1 in this test?
inactive

Which outcome was entered for the compound COc1ccc(/C=C/C=C\C(=O)c2ccc(-n3ccnc3)cc2)cc1 in this test?
inactive

Which outcome was entered for the compound CCNC(=O)N1CCc2c(Cl)c3c(c(OC)c2[C@@H]1[C@H]1OCc2c1ccc(OC)c2OC)OCCO3 in this test?
inactive

Which outcome was entered for the compound CC(C)C1=NOC(=O)C1=Cc1cn(-c2ccccc2)nc1-c1ccc(Br)cc1 in this test?
active

Which outcome was entered for the compound CCOC(=O)CC(c1ccccc1)C(C#N)c1ccccc1 (configuration not stated) in this test?
inactive

Which outcome was entered for the compound O=C(N/N=C/c1ccc([N+](=O)[O-])cc1)c1ccc(Br)o1 in this test?
inactive

Which outcome was entered for the compound O=C1/C(=C/c2ccc(OCc3ccccc3)cc2)Oc2cc(OCCN3CCCCC3)ccc21 in this test?
inactive

Which outcome was entered for the compound CSc1nc(=S)c2nc(SC)n(-c3ccccc3)c2[nH]1 in this test?
inactive
